Recorded durchschnittliche Lebenserwartung der Versuchstiere for the following molecules
test system: Tumorart P 388 (Leukämie); assay: Survival of mice bearing P 388 leukemia (NCI protocol 1200), T/C; type: in vivo, Maus; settings: 100 mg/kg per single dose, 9 doses
readout.name: durchschnittliche Lebenserwartung der Versuchstiere

| molecule | observed |
| --- | --- |
| O=c1n(CC2CO2)c2ccccc2n1CC1CO1 (centres unmarked) [Beispiel 1, N,N'-Digylcidyl-Benzimidazolon] | 18 Tage |
| CCC1(CC)C(=O)N(CC2CO2)C(=O)N(CC2CO2)C1=O (centres unmarked) [Beispiel 10, 1,3-Diglycidyl-5,5-diethylbarbitursäure] | 22 Tage |
| O=c1ccn(CC2CO2)c(=O)n1CC1CO1 (centres unmarked) [Beispiel 13, N,N'-Diglycidyluracil] | 16,0 Tage |
| CN1C(=O)N(CC2CO2)C2C1N(CC1CO1)C(=O)N2C (centres unmarked) [Beispiel 5, 3,6 Diglycidyl-1,4-dimethylglykoluril] | 15,8 Tage |
| CC1(C)C(=O)N(CC2CO2)C(=O)N1CC1CO1 (centres unmarked) [1,3-Diglycidyl-5,5-dimethylhydantoin] | 22 Tage |

====

test system: Tumorart P 388 (Leukämie); test: Survival of mice bearing P 388 leukemia (NCI protocol 1200), T/C; type: in vivo, Maus; conditions: Mus musculus, P388, 50 mg/kg per single dose, 9 doses; first test series; read-out: Verlängerungsrate T/C (Testergebnis in % T/C)

| compound | response vs control in vivo at 50 mg/kg [%] |
| --- | --- |
| CCC1(c2ccccc2)C(=O)N(CC2CO2)C(=O)N1CC1CO1 (stereo not drawn) [R5 CH3-CH2-R6 C6H5-, Diglycidyl-5-phenyl-5-ethylhydantoin] | 125 |
| COc1ccc2c(c1)n(CC1CO1)c(=O)n2CC1CO1 (stereo not drawn) [R2 -H R3 -O-CH3, N,N-Diglycidyl-5-methoxy-benzimidazolon] | 175 |
| CCCCCC(=O)c1ccc2c(c1)n(CC1CO1)c(=O)n2CC1CO1 (stereo not drawn) [R2 -H R3 -C-C5H11 " O, N,N-Diglycidyl-5-caproyl-benzimidazolon] | 167 |

====

system: Tumorart P 388 (Leukämie); assay: Survival of mice bearing P 388 leukemia (NCI protocol 1200), T/C; type: in vivo, Maus; settings: Mus musculus, P388, 200 mg/kg per single dose; first series; unit inferred; read-out: Testergebnis T/C (T/C-Wert)
readout.name: response vs control in vivo at 200 mg/kg (%)

| compound | observed |
| --- | --- |
| O=c1ccn(CC2CO2)c(=O)n1CC1CO1 (stereo not shown) [Beispiel 13, N,N'-Diglycidyluracil] | 230 |
| O=c1c(I)cn(CC2CO2)c(=O)n1CC1CO1 (stereo not shown) [Diglycidyl-5-joduracil, N,N'-Diglycidyl-5-ioduracil] | 189 |
| O=c1n(-c2ccccc2)c(=O)n(CC2CO2)n1CC1CO1 (stereo not shown) [Beispiel 27, 1,2-Diglycidyl-4-phenylurazol] | 200 |
| O=c1ccn(CC2CO2)c(=O)n1Cn1c(=O)ccn(CC2CO2)c1=O (stereo not shown) [[drawing] the 18th table r17] | 186 |

====

Test system: Tumorart P 388 (Leukämie)
Assay: Survival of mice bearing P 388 leukemia (NCI protocol 1200), T/C
Type: in vivo, Maus
Details: 100 mg/kg; repeat experiment
Source text: Die nachfolgenden Versuche wurden durchgeführt nach Testvorschriften des National Cancer Institute Bethesda, Maryland 200014, veröffentlicht in Cancer Chemotherapy Reports" Part. 3, September 1972, Vol. 3, Nr. 2. Als Wirksubstanz wurde 1,3-Diglycidyl-benzimidazolon des i vorstehenden Beispiels 1 verwendet. Die Substanz wurde als wäßrige, 1%ige Injektionslösung unmittelbar vor der Applikation frisch hergestellt. […]

| compound | Testergebnis in % T/C |
| --- | --- |
| CCC1(c2ccccc2)C(=O)N(CC2CO2)C(=O)N1CC1CO1 (stereo not drawn) | 146% |
| O=c1n(CC2CO2)c2ccc(Cl)cc2n1CC1CO1 (stereo not drawn) | 92% |
| CC1(C)C(=O)N(CC2CO2)C(=O)N1CC1CO1 (stereo not drawn) | 239% |
| O=c1n(CC2CO2)c2ccccc2n1CC1CO1 (stereo not drawn) | 161% |
| O=c1ccn(CC2CO2)c(=O)n1CC1CO1 (stereo not drawn) | 152% |
| O=C1N(CC2CO2)C(=O)C(c2ccccc2)(c2ccccc2)N1CC1CO1 (stereo not drawn) | 136% |

====

test system: Tumorart P 388 (Leukämie); experiment: Survival of mice bearing P 388 leukemia (NCI protocol 1200), T/C; type: in vivo, Maus; conditions: Mus musculus, P388, 50 mg/kg per single dose, 9 doses; first test series; read-out: Verlängerungsrate T/C (Testergebnis in % T/C)

| compound | response vs control in vivo at 50 mg/kg [%] |
| --- | --- |
| CC1(c2ccccc2)C(=O)N(CC2CO2)C(=O)N1CC1CO1 (stereo not shown) | 100 |
| O=c1n(CC2CO2)c2cc(Cl)c(Cl)cc2n1CC1CO1 (stereo not shown) | 158 |
| O=c1n(CC2CO2)c2ccccc2n1CC1CO1 (stereo not shown) | 154 |
| CC1(C)C(=O)N(CC2CO2)C(=O)N1CC1CO1 (stereo not shown) | 158 |
